# protocol.summary: Cytotoxicity assay (resazurin) on RAW 264.7 macrophages
# Format: cell-based, murine
# condition.info: mouse; RAW 264.7 macrophages, 48 h incubation, resazurin; read-out: Cytotoxicity on RAW 264.7 Cells CC50 ± SD
Listed here are molecules together with their documented CC50 at 48 h.
Numeric answer only, unit µg/mL assumed.

molecule: COc1cc([C@@H]2c3cc4c(cc3[C@H](O)[C@H]3COC(=O)[C@H]23)OCO4)cc(OC)c1OC [Podophyllotoxin, reference compound]
recorded.number: 0.71

API: the following record is the query input.
Recorded CC50 at 48 h for C=C1[C@@H]2CC[C@@]3(C)[C@H](c4ccoc4)OC(=O)C[C@]13O[C@H]1CC(=O)C(C)(C)[C@H](CC(=O)OC)[C@]12C [Methylangolensate (4), methyl angolensate] , please?
72.7

* * *

# System: promastigote form of Leishmania donovani (1S(MHOM/SD/62/1S))
# protocol.summary: Antileishmanial resazurin-based assay on promastigotes
# Type: cell-based
# condition.info: Leishmania donovani; L. donovani promastigotes, 28 °C; read-out: Antileishmanial Activity IC50 ± SD
readout.name: IC50 (mg/L)
Enter your answer as a number in mg/L; do not include the unit.

compound: Oc1cc(O)c2c(c1)O[C@H](c1ccc(O)c(O)c1)[C@@H](O)C2
readout.name: IC50
display.unit: mg/L
recorded.number: 27

State the recorded IC50 for this entry: C=C(C)[C@@H]1CC[C@]2(C(=O)O)CC[C@]3(C)[C@H](CC[C@@H]4[C@@]5(C)C[C@@H](O)[C@H](O)C(C)(C)[C@@H]5CC[C@]43C)[C@@H]12
17.1

Any idea what its IC50 is? The compound is COc1ccc(-c2cc(=O)c3c(O)c(OC)c(OC)cc3o2)cc1OC
22.2

Requested read-out: IC50. Entry: C[C@@H]1[C@H](O)[C@@H](C)/C=C/C=C/C=C/C=C/C=C/C=C/C=C/[C@H](O[C@@H]2O[C@H](C)[C@@H](O)[C@H](N)[C@@H]2O)C[C@@H]2O[C@](O)(C[C@@H](O)C[C@@H](O)[C@H](O)CC[C@@H](O)C[C@@H](O)CC(=O)O[C@H]1C)C[C@H](O)[C@H]2C(=O)O [Amphotericin B, amphotericin B, reference compound]
3.14

Recorded IC50 for CC1(C)CC[C@]2(C(=O)O)CC[C@]3(C)C(=CC[C@@H]4[C@@]5(C)CC[C@H](O)C(C)(C)[C@@H]5CC[C@]43C)[C@@H]2C1 , please?
30.6

* * *

# protocol.summary: Cytotoxicity assay (resazurin) on RAW 264.7 macrophages
# Assay type: cell-based, murine
# condition.info: mouse
Each entry below carries its recorded CC50 at 48 h.
// note: answer is a bare numeric in µg/mL

compound: COC(=O)[C@H](O)[C@@H]1[C@@]2(C)[C@H]3CC[C@@]4(C)[C@H](c5ccoc5)OC(=O)C[C@@]45O[C@H]4C(=O)[C@@]1(C)C[C@]2(OC(C)=O)[C@@H]4[C@@]35O [Khayanolide E (6), khayanolide E]
display.unit: µg/mL
recorded.number: 81.6

// next entry
Entry C=C(C)[C@@H]1CC[C@]2(C(=O)O)CC[C@]3(C)[C@H](CC[C@@H]4[C@@]5(C)C[C@@H](O)[C@H](O)C(C)(C)[C@@H]5CC[C@]43C)[C@@H]12 : reported CC50 at 48 h = ?
35.8

// data source = paper PMC10609173
